The origin of these recorded values is patent US20190218277A1.

// reported log10(Kd) per item
target-desc: T1, Recombinant soluble E protein (0.8E-His) from DENV-3 (DENV-3, UniProt P27915 281-673)
T1 construct: also called DENV-3 E protein; DV3
parameter-measured: log10(Kd) (log10 of the value in pM)

- binder: "DG_3CH1049-SG182/3CL666-SK1 (antibody, V domains shown) VH: QVQLVQSGAEVKKPGASVKVSCKASGYTFTSYYMHWVRQAPGQGLEWMGVINPRGGSRRSAQKFQGRVTMTRDTSTSTVYMELSSLRSEDTAVYYCARGGEALFYDSYTTPFDGGSWWFDPWGQGSLVTVSS VL: DIQLTQSPSSLSASVGDRVTITCQASQEIRKYLNWYQQKPGKAPKLLIYDASNLKTGVPSRFSGSGSGTDFTLTISSLQPEDVATYYCQQFDDLPITFGQGTRLQIKR"
  parameter-measured: "log10(Kd)"
  meas-value: 0.47
- binder: "DG_3CH953-SG182/3CL633-SK1 (antibody, V domains shown) VH: QVQLVQSGPDVEKPGASVKVSCKASGYTFTSNYIHWVRQAPGQGLEWMGVINPRGGSRRSAQKFQGRITMTRDTSTSTVYMELSSLRSEDTAVYYCARGGRALFYDSYTTPFDGGSWWFDPWGQGSLVTVSS VL: DIQLTQSPSSLSASVGDRVTITCQASQDIRKYLNWYQQKPGKAPKLLIYDASNLKTGVPSRFSGSGSGTDFTLTISSLQPEDVATYYCQQFDDLPITFGQGTRLQIKR"
  parameter-measured: "log10(Kd)"
  meas-value: 0.70
- binder: "DG_3CH989-SG182/3CL666-SK1 (antibody, V domains shown) VH: QVQLVQSGAEVKKPGASVKVSCKASGYTFTSNYIHWVRQAPGQGLEWMGVINPRGGSRRSAQKFQGRVTMTRDTSTSTVYMELSSLRSEDTAVYYCARGGRALFYDSYTTPFDGGSWWFDPWGQGSLVTVSS VL: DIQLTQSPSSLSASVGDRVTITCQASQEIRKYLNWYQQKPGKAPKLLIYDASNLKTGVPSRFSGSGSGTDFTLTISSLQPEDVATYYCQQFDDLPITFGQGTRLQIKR"
  parameter-measured: "log10(Kd)"
  meas-value: 0.29
- binder: "DG_3CH1046-SG182/3CL666-SK1 (antibody, V domains shown) VH: QVQLVQSGAEVKKPGASVKVSCKASGYTFTSYYMHWVRQAPGQGLEWMGVINPRGGSRRSAQKFQGRVTMTRDTSTSTVYMELSSLRSEDTAVYYCARGGRALFYDSYTTPFDGGSWWFDPWGQGSLVTVSS VL: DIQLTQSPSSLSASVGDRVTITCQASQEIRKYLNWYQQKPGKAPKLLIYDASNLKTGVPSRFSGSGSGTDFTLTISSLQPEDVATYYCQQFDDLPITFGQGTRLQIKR"
  parameter-measured: "log10(Kd)"
  meas-value: -0.33
- binder: "DG_3CH1000-SG182/3CL633-SK1 (antibody, V domains shown) VH: QVQLVQSGPDVEKPGASVKVSCKASGYTFTSYYMHWVRQAPGQGLEWMGVINPRGGSRRSAQKFQGRITMTRDTSTSTVYMELSSLRSEDTAVYYCARGGRALFYDSYTTPFDGGSWWFDPWGQGSLVTVSS VL: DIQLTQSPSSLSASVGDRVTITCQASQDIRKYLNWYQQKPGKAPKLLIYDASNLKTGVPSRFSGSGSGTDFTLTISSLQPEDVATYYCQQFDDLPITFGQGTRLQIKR"
  parameter-measured: "log10(Kd)"
  meas-value: 0.63
